Tested on: NCI-H358 cells (K-Ras G12C)
Experiment: CellTiter-Glo cell viability, NCI-H358
Format: cell-based, human
Details: Homo sapiens, NCI-H358, 120 h, K-Ras G12C, 5-day treatment; read-out: H358 Cell Viability IC50
pIC50: −log10 of the molar value.
MEASUREMENT_LABEL: pIC50

Consider the following illustrative entries.
CCn1c(-c2cc(N3CCN(C)CC3)cnc2[C@H](C)OC)c2c3cc(ccc31)-c1csc(n1)C[C@H](NC(=O)[C@H](C(C)C)N(C)C(=O)[C@H]1CCCS1(=O)=O)C(=O)N1CCC[C@H](N1)C(=O)OCC(C)(C)C2 [Compound A439]: > 8.00
CCn1c(-c2cccnc2[C@H](C)OC)c2c3cc(ccc31)-c1csc(n1)C[C@H](NC(=O)[C@H](C(C)C)N(C)C(=O)N1CC3(CC(N(C)C4COC4)C3)C1)C(=O)N1CCC[C@H](N1)C(=O)OCC(C)(C)C2 [Compound A511]: 7.00 to 8.00
CCn1c(-c2cccnc2[C@H](C)OC)c2c3cc(ccc31)-c1csc(n1)C[C@H](NC(=O)[C@H](C(C)C)N(C)C(=O)N1C[C@@H]3OCCN(C)[C@@H]3C1)C(=O)N1CCC[C@H](N1)C(=O)OCC(C)(C)C2 [Compound A444]: 7.00 to 8.00

Attention now turns to another entry.
Task item: Need pIC50 of CCn1c(-c2cccnc2COC)c2c3cc(ccc31)-c1cc(O)cc(c1)C[C@H](NC(=O)[C@H](C(C)C)N(C)C(=O)OC1COC1)C(=O)N1CCC[C@H](N1)C(=O)OCC(C)(C)C2 [Compound A39] , thanks.
Reply: 6.00 to 7.00

----------
Molecular target: KRAS Q61H (Homo sapiens (Human), UniProt P01116+P62937, Q61H)
Sequence (P01116 other isoform, or with tags, fused parts or gaps Q61H): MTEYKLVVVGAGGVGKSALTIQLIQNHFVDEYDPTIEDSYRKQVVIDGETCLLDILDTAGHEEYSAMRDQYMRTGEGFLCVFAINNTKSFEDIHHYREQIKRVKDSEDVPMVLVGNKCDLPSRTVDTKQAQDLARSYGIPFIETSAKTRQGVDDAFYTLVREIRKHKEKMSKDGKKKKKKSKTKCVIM
Sequence (P62937 whole entry): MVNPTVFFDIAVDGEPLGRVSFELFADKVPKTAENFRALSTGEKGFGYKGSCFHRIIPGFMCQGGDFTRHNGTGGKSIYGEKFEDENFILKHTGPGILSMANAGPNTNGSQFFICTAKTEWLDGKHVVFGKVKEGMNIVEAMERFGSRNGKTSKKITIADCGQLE
Assay: Ras-Raf disruption/FRET/MOA assay (BRAF RBD, Cyclophilin A)
Assay type: biochemical
pIC50: −log10 of the molar value.
MEASUREMENT_LABEL: pIC50

Consider the following illustrative entries.
CCn1c(-c2cccnc2[C@H](C)OC)c2c3cc(ccc31)-c1csc(n1)C[C@H](NC(=O)[C@H](C(C)C)N(C)C(=O)N1CC(C(=O)N3CCOCC3)C1)C(=O)N1CCC[C@H](N1)C(=O)OCC(C)(C)C2: 7.00 to 8.00
CCn1c(-c2cccnc2[C@H](C)OC)c2c3cc(ccc31)-c1csc(n1)C[C@H](NC(=O)[C@H](C(C)C)N(C)C(=O)N1CC[C@H]1CN)C(=O)N1CCC[C@H](N1)C(=O)OCC(C)(C)C2: 6.00 to 7.00
CCn1c(-c2cc(N3CCN(C)CC3)cnc2[C@H](C)OC)c2c3cc(ccc31)-c1csc(n1)C[C@H](NC(=O)[C@H](C(C)C)N(C)C(=O)[C@H]1CCCS1(=O)=O)C(=O)N1CCC[C@H](N1)C(=O)OCC(C)(C)C2: 6.00 to 7.00

Attention now turns to another entry.
Task item: Need pIC50 of CCn1c(-c2cccnc2[C@H](C)OC)c2c3cc(ccc31)-c1csc(n1)C[C@H](NC(=O)[C@H](C(C)C)N(C)C(=O)N1CCS(=O)(=O)CC1)C(=O)N1CCC[C@H](N1)C(=O)OCC(C)(C)C2 , thanks.
Reply: 6.00 to 7.00
